tested on: Fibroblast; assay: Incucyte cell viability with human fibroblast; assay type: toxicity, cell-based; details: 6 h, 10 µM, compound concentration 10 uM, replicate number 2; further: unitless GR value; below 1 slowed growth and below 0 cell loss
Reported Growth Rate values follow for various compounds
Reply with just the number.

Sample records with Growth Rate:
Compound	Experimental Target	Growth Rate
Cc1cc(O)c(-c2ccc([C@@H](C)CN(C)C)cc2)c2c1[nH]c(=O)c1sccc12	Fibroblast	-0.58
CC(=O)N1CCN([C@H]2CCC[C@@H](NC(=O)c3cc4c(F)ccc(C)c4[nH]3)C2)CC1.O=C(O)C(F)(F)F	Fibroblast	0.42
COc1cc(F)ccc1-c1ncnc(Nc2cccc(C[S@](C)(=N)=O)c2)n1 [ATUVECICLIB]	Fibroblast	-0.07

Query CC(CNS(=O)(=O)C(C)C)c1ccc(-c2ccc(C#N)cc2)cc1 (stereo unspecified) yields Growth Rate of -0.76

Query CCC(=O)N[C@H]1CC[C@@H](C(=O)N(C)c2ccc(-c3nc4ccccc4o3)cc2)C1 [BI 99179] yields Growth Rate of 0.58

Query `CNc1ncc2cc(-c3ccc(-c4ncccc4F)cc3Cl)c(=O)n(C[C@H]3OC[C@H](N)CO3)c2n1` yields Growth Rate of -0.26

Query CC(C)CNc1nc(N2CCN(CC3CCCOC3)CC2)ncc1C(=O)NCc1ccccc1 (stereo unspecified) yields Growth Rate of -1

Query CC(=O)Nc1c(F)cc(C(=O)N[C@H]2CC[C@H](O)CC2)cc1O[C@@H](C)c1ccccc1 [GSK046] yields Growth Rate of 0.19

Query `CN(C)C/C=C/C(=O)Nc1cccc(S(=O)(=O)N2CCC(NC(=O)c3n[nH]cc3NC(=O)c3c(Cl)cc(Cl)cc3Cl)CC2)c1` yields Growth Rate of 0.98

Query `C[C@H](CCOc1cccc(CC(=O)O)c1)N(Cc1cccc(C(F)(F)F)c1Cl)CC(c1ccccc1)c1ccccc1.Cl` yields Growth Rate of 0.01

Query `CCOC(=O)Nc1ccc2c(c1)N(C(=O)CN(CC)CC)c1ccccc1CC2` yields Growth Rate of 0.43

---

Reported Growth Rate values follow for various molecules
tested on: U2OS; assay: Incucyte cell viability with U2OS; assay type: toxicity, cell-based; details: human, 24 h, 10 µM, compound concentration 10 uM, replicate number 2; further: unitless GR value; below 1 slowed growth and below 0 cell loss
Reply with just the number.

Sample records with Growth Rate:
>>> print(df.to_string())
                            compound_string  experimental_result
0  Clc1ccc(-c2nc3sccn3c2/C=N/OCc2ccc(Cl)c(Cl)c2)cc1                 0.93
1  CCn1c(-c2nonc2N)nc2cncc(C(=O)N3CC[C@H](N)C3)c21.Cl                 0.79
2             CNc1oc(-c2cccc3ccccc23)nc1C#N                 0.99

Query `Fc1ccc(-c2nc(-c3c(F)cccc3F)[nH]c2-c2ccncc2)cc1` yields Growth Rate of 0.76

Query `COc1ncc2cc(C(=O)Nc3cc(C(=O)NCc4cccc(Cl)c4)ccc3Cl)c(=O)[nH]c2n1` yields Growth Rate of 0.97

---

system: Fibroblast; assay: Incucyte cell viability with human fibroblast; assay type: toxicity, cell-based; details: 24 h, 10 µM, compound concentration 10 uM, replicate number 1; further: unitless GR value; below 1 slowed growth and below 0 cell loss
Recorded Endpoint: Growth Rate

Query `CCCc1c(OCCCOc2ccc(OCC(=O)O)cc2)ccc(C(C)=O)c1O` yields Growth Rate of 0.94

Query `C[C@@H](c1ccc(F)cc1)n1nnc2cnc3ccc(-c4ccc5ocnc5c4)cc3c21` yields Growth Rate of 1

Query `Cn1cc(-n2cnc3c(NCc4nc5cc(Cl)c(Cl)cc5[nH]4)nc(N4CCOCC4)nc32)cn1` yields Growth Rate of 0.54

Query `N[C@@H](CC(=O)O)Cn1nnc(-c2ccc(Oc3ncc(Cl)cc3F)cc2)n1` yields Growth Rate of 0.95

Query `CC(C)[C@@H]1CC[C@@H](C)C[C@@H]1P(=O)(c1ccccc1)c1ccccc1` yields Growth Rate of 0.9

Query `O=C1C[C@@H]2OCC=C3CN4CC[C@]56c7ccccc7N1[C@H]5[C@H]2[C@H]3C[C@H]46` yields Growth Rate of 0.81

Query `COc1cc(N2CCN(C)CC2)ccc1Nc1ncc2c(n1)N(C)c1ccccc1C(=O)N2CC(F)(F)F` yields Growth Rate of -0.1

Query `Cc1c(-c2cc(-c3ccccc3Cl)no2)cnn1C1CCNCC1.Cl` yields Growth Rate of 0.83
